EXPERIMENTAL TARGET: mAChR M1 (UniProt P08482)
METHOD DESCRIPTION: mAChR M1 cell-based functional assay (calcium mobilization, PAM mode)
DETAILS: positive allosteric modulator activity: concentration-dependent increase in the EC20 acetylcholine response; calcium flux in CHO-K1 cells stably expressing mAChR M1; read-out: EC50
pEC50: −log10 of the molar value.

>  <COMPOUND>
O=C(Nc1ccccc1)C1CN(Cc2ccc(-n3cccn3)cc2)c2ccccc2O1 (stereo not shown)

>  <EXPERIMENTAL TARGET>
mAChR M1 (UniProt P08482)

>  <RESULT COMPARATOR>
<

>  <pEC50>
4.52

$$$$
>  <COMPOUND>
O=C(NCC(O)C(F)(F)F)C1CN(Cc2ccc(-n3cccn3)cc2)c2ccccc2O1 (stereo not shown)

>  <EXPERIMENTAL TARGET>
mAChR M1 (UniProt P08482)

>  <RESULT COMPARATOR>
=

>  <pEC50>
5.64

$$$$
>  <COMPOUND>
O=C(NCCOc1ccccc1F)C1CN(Cc2ccc(-n3cccn3)cc2)c2ccccc2O1 (stereo not shown)

>  <EXPERIMENTAL TARGET>
mAChR M1 (UniProt P08482)

>  <RESULT COMPARATOR>
<

>  <pEC50>
4.52

$$$$
>  <COMPOUND>
O=C(NC1CCC1)C1CN(Cc2ccc(-n3cccn3)cc2)c2ccccc2O1 (stereo not shown)

>  <EXPERIMENTAL TARGET>
mAChR M1 (UniProt P08482)

>  <RESULT COMPARATOR>
=

>  <pEC50>
5.12

$$$$

###

EXPERIMENTAL TARGET: mAChR M1 (UniProt P08482)
METHOD DESCRIPTION: mAChR M1 cell-based functional assay (calcium mobilization, PAM mode)
DETAILS: positive allosteric modulator activity: concentration-dependent increase in the EC20 acetylcholine response; calcium flux in CHO-K1 cells stably expressing mAChR M1; read-out: EC50

>  <MOLECULE>
O=C(Nc1ccn[nH]1)C1CN(Cc2ccc(-n3cccn3)cc2)c2ccccc2O1 (stereo not shown)

>  <RESULT COMPARATOR>
>

>  <EC50 [µM]>
30

$$$$
>  <MOLECULE>
O=C(NCc1ccccn1)C1CN(Cc2ccc(-n3cccn3)cc2)c2ccccc2O1 (stereo not shown)

>  <RESULT COMPARATOR>
=

>  <EC50 [µM]>
4.82

$$$$
>  <MOLECULE>
O=C(Nc1ccccn1)C1CN(Cc2ccc(-n3cccn3)cc2)c2ccccc2O1 (stereo not shown)

>  <RESULT COMPARATOR>
≥

>  <EC50 [µM]>
10

$$$$
>  <MOLECULE>
O=C(Nc1ncccc1F)C1CN(Cc2ccc(-n3cccn3)cc2)c2ccccc2O1 (stereo not shown)

>  <RESULT COMPARATOR>
=

>  <EC50 [µM]>
2.57

$$$$
>  <MOLECULE>
COCCNC(=O)C1CN(Cc2ccc(-n3cccn3)cc2)c2ccccc2O1 (stereo not shown)

>  <RESULT COMPARATOR>
=

>  <EC50 [µM]>
7.65

$$$$
>  <MOLECULE>
COC(=O)CNC(=O)C1CN(Cc2ccc(-n3cccn3)cc2)c2ccccc2O1 (stereo not shown)

>  <RESULT COMPARATOR>
=

>  <EC50 [µM]>
1.44

$$$$
>  <MOLECULE>
C[C@@H](CO)NC(=O)C1CN(Cc2ccc(-n3cccn3)cc2)c2ccccc2O1 (stereo partly shown)

>  <RESULT COMPARATOR>
=

>  <EC50 [µM]>
4.66

$$$$
>  <MOLECULE>
O=C(N[C@H]1CCCC[C@@H]1O)C1CN(Cc2ccc(-n3cccn3)cc2)c2ccccc2O1 (single isomer, unassigned) [Compound B29]

>  <RESULT COMPARATOR>
=

>  <EC50 [µM]>
0.573

$$$$
>  <MOLECULE>
O=C(N[C@@H](CO)[C@H](O)c1ccccc1)C1CN(Cc2ccc(-n3cccn3)cc2)c2ccccc2O1 (stereo partly shown)

>  <RESULT COMPARATOR>
≥

>  <EC50 [µM]>
10

$$$$
>  <MOLECULE>
Cn1cc2c(-c3cc(F)c(CN4CC(C(=O)N[C@H]5CCCC[C@@H]5O)Oc5ccccc54)c(F)c3)cccc2n1 (stereo partly shown)

>  <RESULT COMPARATOR>
≥

>  <EC50 [µM]>
10

$$$$
>  <MOLECULE>
O=C(N[C@H]1CCC[C@@H]1O)C1CN(Cc2ccc(-n3cccn3)cc2)c2ccccc2O1 (stereo partly shown)

>  <RESULT COMPARATOR>
=

>  <EC50 [µM]>
1.15

$$$$
>  <MOLECULE>
O=C(NC1CCCC1)C1CN(Cc2ccc(-n3cccn3)cc2)c2ccccc2O1 (stereo not shown)

>  <RESULT COMPARATOR>
≥

>  <EC50 [µM]>
10

$$$$
>  <MOLECULE>
O=C(NCCO)C1CN(Cc2ccc(-n3cccn3)cc2)c2ccccc2O1 (stereo not shown)

>  <RESULT COMPARATOR>
=

>  <EC50 [µM]>
6.54

$$$$
>  <MOLECULE>
CC(C)CNC(=O)C1CN(Cc2ccc(-n3cccn3)cc2)c2ccccc2O1 (stereo not shown)

>  <RESULT COMPARATOR>
=

>  <EC50 [µM]>
3.56

$$$$
>  <MOLECULE>
O=C(NCC(F)F)C1CN(Cc2ccc(-n3cccn3)cc2)c2ccccc2O1 (stereo not shown)

>  <RESULT COMPARATOR>
≥

>  <EC50 [µM]>
10

$$$$
>  <MOLECULE>
O=C(NC1CC1)C1CN(Cc2ccc(-n3cccn3)cc2)c2ccccc2O1 (stereo not shown)

>  <RESULT COMPARATOR>
≥

>  <EC50 [µM]>
10

$$$$

###

EXPERIMENTAL TARGET: UniProtKB P08482
METHOD DESCRIPTION: mAChR M1 cell-based functional assay (calcium mobilization, PAM mode)
DETAILS: positive allosteric modulator activity: concentration-dependent increase in the EC20 acetylcholine response; calcium flux in CHO-K1 cells stably expressing mAChR M1; read-out: EC50

>  <COMPOUND>
O=C(NC1COC1)C1CN(Cc2ccc(-n3cccn3)cc2)c2ccccc2O1 (centres unmarked) [Compound B3]

>  <VALUE UNIT>
µM

>  <RESULT COMPARATOR>
≥

>  <EC50>
10

$$$$
>  <COMPOUND>
COc1ccc(CN2C[C@H](C(=O)N[C@H]3CCCC[C@@H]3O)Oc3ccccc32)cc1 (single isomer, unassigned) [Compound B9]

>  <VALUE UNIT>
µM

>  <RESULT COMPARATOR>
=

>  <EC50>
7.75

$$$$
>  <COMPOUND>
COc1cccnc1NC(=O)C1CN(Cc2ccc(-n3cccn3)cc2)c2ccccc2O1 (centres unmarked) [Compound B48]

>  <VALUE UNIT>
µM

>  <RESULT COMPARATOR>
=

>  <EC50>
2.4

$$$$
>  <COMPOUND>
CC(C)(O)CNC(=O)C1CN(Cc2ccc(-n3cccn3)cc2)c2ccccc2O1 (centres unmarked) [Compound B36]

>  <VALUE UNIT>
µM

>  <RESULT COMPARATOR>
=

>  <EC50>
3.8

$$$$
>  <COMPOUND>
NC(=O)C1CN(Cc2ccc(-n3cccn3)cc2)c2ccccc2O1 (centres unmarked) [Compound B32]

>  <VALUE UNIT>
µM

>  <RESULT COMPARATOR>
=

>  <EC50>
3.3

$$$$

###

Here the recorded pEC50 is given for each entry.
EXPERIMENTAL TARGET: mAChR M1 (UniProt P08482)
Sequence (P08482 1-460): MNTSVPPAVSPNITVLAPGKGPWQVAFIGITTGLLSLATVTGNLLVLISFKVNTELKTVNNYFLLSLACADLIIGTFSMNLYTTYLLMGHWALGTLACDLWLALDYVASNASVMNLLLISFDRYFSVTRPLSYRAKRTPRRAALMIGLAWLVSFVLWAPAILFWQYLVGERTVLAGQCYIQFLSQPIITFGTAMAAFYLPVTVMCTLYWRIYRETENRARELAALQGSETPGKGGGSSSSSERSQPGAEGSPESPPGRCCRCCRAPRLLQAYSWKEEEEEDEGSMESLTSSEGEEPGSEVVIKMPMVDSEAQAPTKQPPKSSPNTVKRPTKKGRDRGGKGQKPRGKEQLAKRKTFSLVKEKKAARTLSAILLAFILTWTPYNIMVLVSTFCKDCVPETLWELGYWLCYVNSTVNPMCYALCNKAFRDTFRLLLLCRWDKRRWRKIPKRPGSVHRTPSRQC
METHOD DESCRIPTION: mAChR M1 cell-based functional assay (calcium mobilization, PAM mode)
DETAILS: positive allosteric modulator activity: concentration-dependent increase in the EC20 acetylcholine response; calcium flux in CHO-K1 cells stably expressing mAChR M1; read-out: EC50
pEC50: −log10 of the molar value.

>  <COMPOUND>
CC(C)C[C@@H](CO)NC(=O)[C@H]1CN(Cc2ccc(-n3cccn3)cc2)c2ccccc2O1 (single isomer, unassigned)

>  <pEC50>
5.68

$$$$
>  <COMPOUND>
O=C(N[C@H]1CCCC[C@@H]1O)C1CN(Cc2ccc(Cl)nc2)c2ccccc2O1 (stereo partly shown)

>  <pEC50>
5.38

$$$$
>  <COMPOUND>
CC(C)NC(=O)C1CN(Cc2ccc(-n3cccn3)cc2)c2ccccc2O1 (stereo not shown)

>  <pEC50>
≤ 5.00

$$$$
>  <COMPOUND>
O=C(NCCOc1ccc(F)cc1)C1CN(Cc2ccc(-n3cccn3)cc2)c2ccccc2O1 (stereo not shown)

>  <pEC50>
< 4.52

$$$$
>  <COMPOUND>
COc1ccc(CN2CC(C(=O)N[C@H]3CCCC[C@@H]3O)Oc3ccccc32)cc1 (stereo partly shown)

>  <pEC50>
≤ 5.00

$$$$
>  <COMPOUND>
O=C(Nc1cccc2cn[nH]c12)C1CN(Cc2ccc(-n3cccn3)cc2)c2ccccc2O1 (stereo not shown)

>  <pEC50>
5.13

$$$$
>  <COMPOUND>
CC1(NC(=O)C2CN(Cc3ccc(-n4cccn4)cc3)c3ccccc3O2)COC1 (stereo not shown)

>  <pEC50>
< 4.52

$$$$
>  <COMPOUND>
CC(C)(CO)NC(=O)C1CN(Cc2ccc(-n3cccn3)cc2)c2ccccc2O1 (stereo not shown)

>  <pEC50>
< 4.52

$$$$
>  <COMPOUND>
O=C(Nc1ncccc1O)C1CN(Cc2ccc(-n3cccn3)cc2)c2ccccc2O1 (stereo not shown)

>  <pEC50>
6.27

$$$$
>  <COMPOUND>
O=C(N[C@H]1CCCC[C@@H]1O)C1CN(Cc2ccc(C(F)(F)F)nc2)c2ccccc2O1 (stereo partly shown)

>  <pEC50>
5.33

$$$$
>  <COMPOUND>
O=C(NC1CCOC1)C1CN(Cc2ccc(-n3cccn3)cc2)c2ccccc2O1 (stereo not shown)

>  <pEC50>
≤ 5.00

$$$$
>  <COMPOUND>
O=C(N[C@H]1CCCC[C@@H]1O)C1CN(Cc2c(F)cc(Br)cc2F)c2ccccc2O1 (stereo partly shown)

>  <pEC50>
< 4.52

$$$$
>  <COMPOUND>
O=C(N[C@H]1CCCC[C@@H]1O)C1CN(Cc2ccc(C(F)(F)F)nc2)c2cccc(F)c2O1 (stereo partly shown)

>  <pEC50>
5.44

$$$$
>  <COMPOUND>
Cc1ccc(NC(=O)C2CN(Cc3ccc(-n4cccn4)cc3)c3ccccc3O2)c(O)c1 (stereo not shown)

>  <pEC50>
< 4.52

$$$$
>  <COMPOUND>
O=C(NCCCN1CCOCC1)C1CN(Cc2ccc(-n3cccn3)cc2)c2ccccc2O1 (stereo not shown)

>  <pEC50>
≤ 5.00

$$$$
>  <COMPOUND>
O=C(N[C@H]1CCCC[C@@H]1O)C1CN(Cc2ccc(-n3cccn3)cc2)c2ccccc2O1 (single isomer, unassigned) [Compound B41]

>  <pEC50>
6.70

$$$$
>  <COMPOUND>
COc1ccc(OCCNC(=O)C2CN(Cc3ccc(-n4cccn4)cc3)c3ccccc3O2)cc1 (stereo not shown)

>  <pEC50>
< 4.52

$$$$
>  <COMPOUND>
COc1ccccc1OCCNC(=O)C1CN(Cc2ccc(-n3cccn3)cc2)c2ccccc2O1 (stereo not shown)

>  <pEC50>
< 4.52

$$$$
>  <COMPOUND>
Cc1ccccc1NC(=O)C1CN(Cc2ccc(-n3cccn3)cc2)c2ccccc2O1 (stereo not shown)

>  <pEC50>
≤ 5.00

$$$$
>  <COMPOUND>
O=C(NC1CCCOC1)C1CN(Cc2ccc(-n3cccn3)cc2)c2ccccc2O1 (stereo not shown)

>  <pEC50>
≤ 5.00

$$$$
>  <COMPOUND>
CC(C)C[C@@H](CO)NC(=O)[C@@H]1CN(Cc2ccc(-n3cccn3)cc2)c2ccccc2O1 (single isomer, unassigned)

>  <pEC50>
5.43

$$$$
>  <COMPOUND>
COc1ccc(CN2C[C@@H](C(=O)N[C@H]3CCCC[C@@H]3O)Oc3ccccc32)cc1 (single isomer, unassigned)

>  <pEC50>
≤ 5.00

$$$$
>  <COMPOUND>
CNC(=O)C1CN(Cc2ccc(-n3cccn3)cc2)c2ccccc2O1 (stereo not shown)

>  <pEC50>
5.27

$$$$
>  <COMPOUND>
O=C(N[C@H]1CCCC[C@@H]1O)C1CN(Cc2ccc(-n3cccn3)cc2)c2ccccc2O1 (stereo partly shown) [Compound B1]

>  <pEC50>
6.52

$$$$
>  <COMPOUND>
O=C(Nc1ncc(F)cc1F)C1CN(Cc2ccc(-n3cccn3)cc2)c2ccccc2O1 (stereo not shown)

>  <pEC50>
≤ 5.00

$$$$
>  <COMPOUND>
O=C(NCC(F)(F)F)C1CN(Cc2ccc(-n3cccn3)cc2)c2ccccc2O1 (stereo not shown)

>  <pEC50>
< 4.52

$$$$
>  <COMPOUND>
O=C(NC1CCOCC1)C1CN(Cc2ccc(-n3cccn3)cc2)c2ccccc2O1 (stereo not shown)

>  <pEC50>
5.35

$$$$
>  <COMPOUND>
O=C(Nc1ccccc1O)C1CN(Cc2ccc(-n3cccn3)cc2)c2ccccc2O1 (stereo not shown)

>  <pEC50>
≤ 5.00

$$$$
>  <COMPOUND>
COCC(C)NC(=O)C1CN(Cc2ccc(-n3cccn3)cc2)c2ccccc2O1 (stereo not shown)

>  <pEC50>
≤ 5.00

$$$$
>  <COMPOUND>
O=C(NC1CCCCC1)C1CN(Cc2ccc(-n3cccn3)cc2)c2ccccc2O1 (stereo not shown)

>  <pEC50>
≤ 5.00

$$$$
>  <COMPOUND>
Cn1cc(-c2ccc(CN3CC(C(=O)N[C@H]4CCCC[C@@H]4O)Oc4ccccc43)cc2)cn1 (stereo partly shown)

>  <pEC50>
< 4.52

$$$$
